Data credit: ChEMBL document CHEMBL1772933

target: Phospholipase A2 (Apis mellifera) (UniProt P00630)
Sequence (P00630 whole entry): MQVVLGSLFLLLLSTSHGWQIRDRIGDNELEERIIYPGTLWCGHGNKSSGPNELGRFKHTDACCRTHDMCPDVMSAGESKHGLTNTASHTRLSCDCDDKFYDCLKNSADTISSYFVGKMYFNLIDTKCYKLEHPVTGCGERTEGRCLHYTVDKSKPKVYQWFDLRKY
experimental protocol: Inhibition of Apis mellifera venom PLA2 by colorimetric bioassay
Calls of active or inactive are those of the source. The calls are words filed in the database; no cut-off is given here.
measurement kind: inhibition

[[record]]
compound = "CC(C)(C)OC(=O)NCCCCNCCCNC(=O)C(=O)c1c[nH]c2cc(Br)ccc12"
measurement = "inactive"

[[record]]
compound = "CC(C)(C)OC(=O)NCCCCNCCCNC(=O)C(=O)c1c[nH]c2ccccc12"
measurement = "inactive"

[[record]]
compound = "NCCCCNCCCNC(=O)C(=O)c1c[nH]c2ccccc12 [DIDEMNIDINE A]"
measurement = "inactive"

[[record]]
compound = "NCCCCNCCCNC(=O)C(=O)c1c[nH]c2cc(Br)ccc12 [DIDEMNIDINE B]"
measurement = "inactive"

